- ASSAY_SYSTEM: T1, sIL-6R (soluble IL-6 receptor; SBH Sciences) (human, UniProt P08887 20-365)
- T1 construct: also called human IL-6R
- T1 sequence: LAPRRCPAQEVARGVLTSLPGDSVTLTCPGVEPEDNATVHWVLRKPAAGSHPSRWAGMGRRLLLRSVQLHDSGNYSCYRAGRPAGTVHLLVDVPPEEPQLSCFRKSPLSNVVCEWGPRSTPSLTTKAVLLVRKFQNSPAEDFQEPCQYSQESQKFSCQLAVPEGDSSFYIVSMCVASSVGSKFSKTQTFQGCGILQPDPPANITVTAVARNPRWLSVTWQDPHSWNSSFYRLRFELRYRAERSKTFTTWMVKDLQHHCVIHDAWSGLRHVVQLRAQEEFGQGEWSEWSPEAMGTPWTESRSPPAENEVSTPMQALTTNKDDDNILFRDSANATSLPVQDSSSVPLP
- METHOD: SPR (BIAcore 3000), antibody on chip, sIL-6R analyte, 25 C

{"BINDER": "250# (antibody, human IgG1, kappa, V domains shown, also called Sample # 250) VH: QVQLQESGPGLVRPSQTLSLTCTVSGYSITSDHAWSWVRQPPGRGLEWIGYISYSGMTTYNPSLKSRVTMLRDTSKNQFSLRLSSVTAADTAVYYCARSLARITAMDYWGQGSLVTVSS VL: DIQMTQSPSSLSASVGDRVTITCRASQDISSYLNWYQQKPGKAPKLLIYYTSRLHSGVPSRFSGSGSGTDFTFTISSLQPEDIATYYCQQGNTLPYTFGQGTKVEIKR", "kon / M⁻¹ s⁻¹": 262000}
{"BINDER": "251# (antibody, human IgG1, kappa, V domains shown, also called Sample # 251) VH: QVQLQESGPGLVRPSQTLSLTCTVSGYSITSDHAWSWVRQPPGRGLEWIGYISYSGMITYNPSLKSRVTMLRDTSKNQFSLRLSSVTAADTAVYYCARSLARITAMDYWGQGSLVTVSS VL: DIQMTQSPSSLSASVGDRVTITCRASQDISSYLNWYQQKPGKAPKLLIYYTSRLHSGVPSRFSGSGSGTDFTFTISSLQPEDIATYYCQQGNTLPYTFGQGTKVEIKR", "kon / M⁻¹ s⁻¹": 173000}
{"BINDER": "202# (antibody, human IgG1, kappa, V domains shown) VH: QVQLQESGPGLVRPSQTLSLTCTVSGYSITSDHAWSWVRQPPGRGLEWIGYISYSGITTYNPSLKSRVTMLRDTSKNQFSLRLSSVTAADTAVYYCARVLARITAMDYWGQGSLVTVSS VL: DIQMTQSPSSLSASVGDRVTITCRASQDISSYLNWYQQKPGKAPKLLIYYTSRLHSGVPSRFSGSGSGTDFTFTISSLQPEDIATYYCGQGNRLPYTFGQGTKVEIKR", "kon / M⁻¹ s⁻¹": 134000}
